Item-by-item account of TGI
tested on: 786-0 renal; test: NCI tumour cell line growth inhibition, 48 h

Would you please look over these solved cases?
Clc1ccc(Nc2nn3c(CCCCCCCCc4nnc5sc(Nc6ccc(Cl)cc6)nn45)nnc3s2)cc1	> 100 µM
CCOC(=O)c1sc2nc(SC)nc(N3CCCCC3)c2c1N	> 100 µM
CC1=NN(c2nc(N)nc(COCc3nc(N)nc(N4N=C(C)CC4(C)C)n3)n2)C(C)(C)C1	> 100 µM
CCOC(=O)C(NC(=O)CC)(Nc1ccc(S(=O)(=O)Nc2ncccn2)cc1)C(F)(F)F (stereo not given)	> 100 µM
CN1C(=O)N(C)C2C1NN=c1s/c(=C\c3ccccc3F)c(=O)n12 (stereo not given)	> 100 µM

Any idea what its TGI is? The compound is CCOC(=O)c1nc2cc(C(F)(F)F)ccc2nc1Nc1ccc(OC)c(OC)c1 > 100 µM

These data points were gathered from PubChem BioAssay (NCI).
